assayed.system: human TRPV1 (Homo sapiens, UniProt Q8NER1)
Construct: expressed in transfected cells; host or cells: HEK293 (hTRPV1/HEK293), zeocin selection
Sequence (Q8NER1 whole entry): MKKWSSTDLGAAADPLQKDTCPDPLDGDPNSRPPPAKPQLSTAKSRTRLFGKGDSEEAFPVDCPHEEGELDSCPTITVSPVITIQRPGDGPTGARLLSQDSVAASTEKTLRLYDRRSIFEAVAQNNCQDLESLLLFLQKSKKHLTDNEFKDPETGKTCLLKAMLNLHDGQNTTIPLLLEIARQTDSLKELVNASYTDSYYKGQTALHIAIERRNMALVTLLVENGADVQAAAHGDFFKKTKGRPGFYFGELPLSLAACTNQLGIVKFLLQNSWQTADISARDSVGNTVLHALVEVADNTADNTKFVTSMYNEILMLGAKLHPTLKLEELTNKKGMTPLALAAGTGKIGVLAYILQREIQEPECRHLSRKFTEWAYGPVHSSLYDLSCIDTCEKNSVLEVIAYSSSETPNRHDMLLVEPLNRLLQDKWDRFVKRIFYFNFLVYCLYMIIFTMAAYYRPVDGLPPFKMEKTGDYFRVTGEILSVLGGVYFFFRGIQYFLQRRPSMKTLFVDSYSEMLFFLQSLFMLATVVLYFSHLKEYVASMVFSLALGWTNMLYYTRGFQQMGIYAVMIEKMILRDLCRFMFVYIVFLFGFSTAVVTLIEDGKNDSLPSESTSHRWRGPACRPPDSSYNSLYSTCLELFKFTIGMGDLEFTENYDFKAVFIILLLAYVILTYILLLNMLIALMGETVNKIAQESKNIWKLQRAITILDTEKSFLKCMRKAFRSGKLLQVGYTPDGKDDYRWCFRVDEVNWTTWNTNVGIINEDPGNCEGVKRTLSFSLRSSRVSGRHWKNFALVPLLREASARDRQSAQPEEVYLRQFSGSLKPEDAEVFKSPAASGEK
assay.remarks: Functional assay: block of capsaicin-induced Ca2+ influx, human assay (hTRPV1/HEK293, FLIPR)
Format: cell-based
test.context: hTRPV1/HEK293 cells, 150 nM capsaicin challenge, Fluo-3 fluorescence; mean; > value = solubility limit in assay medium
Entries annotated with measured pIC50
# log scale: pIC50 equals minus log10 of the concentration in mol/L

Study these solved cases before continuing.
line.notation	assayed.system	pIC50
Cc1cccc(C)c1Nc1nc2c(Nc3ccc(S(C)(=O)=O)c(F)c3)ncnc2s1	human TRPV1 (Homo sapiens, UniProt Q8NER1)	7.92
Cc1cccc(C)c1Nc1nc2c(Nc3ccc(C(C)(C)C#N)cc3)ncnc2s1	human TRPV1 (Homo sapiens, UniProt Q8NER1)	7.29
CN1CCN(c2nc(Nc3ccc(C(F)(F)F)cc3)c3nc(Nc4c(Cl)cccc4Cl)sc3n2)CC1	human TRPV1 (Homo sapiens, UniProt Q8NER1)	6.09
CS(=O)(=O)c1ccc(Nc2ncnc3sc(Nc4c(Cl)cccc4Cl)nc23)cc1F	human TRPV1 (Homo sapiens, UniProt Q8NER1)	8.30

Turning now to a further molecule:
Entry CS(=O)(=O)c1ccc(Nc2ncnc3sc(Nc4c(Cl)cc(C(N)=O)cc4Cl)nc23)cc1 ; pIC50 = 6.08

---

Entries and their measured pIC50 follow.
assayed.system: human TRPV1 (Homo sapiens, UniProt Q8NER1)
assay.remarks: Functional assay: block of capsaicin-induced Ca2+ influx, human assay (hTRPV1/HEK293, FLIPR)
test.context: hTRPV1/HEK293 cells, 150 nM capsaicin challenge, Fluo-3 fluorescence; mean; > value = solubility limit in assay medium
# pIC50 is unitless: minus log10 of the molar concentration; print number only

line.notation	pIC50
FC(F)(F)c1ccc(Nc2ncnc3sc(NC4CCCCC4)nc23)cn1	5.15
Cc1ccc(Nc2ncnc3sc(Nc4c(C)cccc4C)nc23)cc1	7.51

# pIC50 (compound: Cc1nc(Nc2ccc(SC(C)C)cc2)c2nc(Nc3c(C)cccc3C)sc2n1 ) is 7.60

// Cc1nc(Nc2ccccc2)c2nc(Nc3c(C)cccc3C)sc2n1 : pIC50 value = 6.46

Per the records, this compound ( CN1CCN(S(=O)(=O)c2ccc(Nc3ncnc4sc(Nc5c(Cl)cccc5Cl)nc34)cc2)CC1 ) has pIC50 equal to 8.15

Record Cc1nc(Nc2ccc(C(F)(F)F)cc2)c2nc(Nc3ccccc3Cl)sc2n1 . Reported pIC50: 7.24

// O=S(=O)(c1ccc(Nc2ncnc3sc(Nc4ccccc4Cl)nc23)cc1)N1CCOCC1 : pIC50 value = 7.62

The compound identified as Cc1nc(Nc2ccc(SC(F)(F)F)c(Cl)c2)c2nc(Nc3c(Cl)cccc3Cl)sc2n1 registered its pIC50 at 6.69

---

assayed.system: human TRPV1 (Homo sapiens)
assay.remarks: Functional assay: block of capsaicin-induced Ca2+ influx, human assay (hTRPV1/HEK293, FLIPR)
test.context: hTRPV1/HEK293 cells, 150 nM capsaicin challenge, Fluo-3 fluorescence; mean; > value = solubility limit in assay medium
Protocol: Functional assay: block of capsaicin-induced Ca^2+ influx HEK293 cells were transfected with human TRPV1 cloned in pcDNA3.1zeo(+) using the Effectene non-liposomal lipid based transfection kit (Qiagen) (hTRPV1/HEK293). hTRPV1/HEK293 cells were routinely grown as monolayers under selection in zeocin (200 μg/mL; Invitrogen) in Dulbecco's Modified Eagle Medium (DMEM, Gibco BRL) supplemented with 10% fetal bovine serum, and penicillin/streptomycin (50 units/mL) in 5% CO2 at 37° C. […]
Consider the cut-off 0.06 µM. If the recorded IC50 is strictly smaller, the label is yes; if not, the label is no.

line.notation	group
C[C@@H](O)CNc1nc(Nc2ccc(C(F)(F)F)cc2)c2nc(Nc3c(Cl)cccc3Cl)sc2n1	yes

Challenge: Is it true that IC50 reported for Cc1nc(Nc2ccc(C(C)(C)C)cc2)c2nc(Nc3c(Cl)cccc3Cl)sc2n1 is less than 0.06 µM?
Response given: yes

Challenge: Would you kindly verify if IC50 of COc1nc(Nc2ccc(C(F)(F)F)cc2)c2nc(Nc3c(Cl)cccc3Cl)sc2n1 is strictly less than 0.06 µM?
Response given: no
